# System: Escherichia coli
# experiment_description: Bactericidal activity against Escherichia coli DM4100 in aerobic condition
# Type: functional, organism-based
Active and inactive are the calls of the source. The calls are words filed in the database; no cut-off is given here.

>  <molecule>
CCn1cc(C(=O)O)c(=O)c2ccc(C)nc21 [NALIDIXIC ACID]

>  <Activity>
Active

$$$$
>  <molecule>
CCN1CCN(c2c(F)cc3c(=O)c(C(=O)O)cn(C4CC4)c3c2OC)CC1

>  <Activity>
Active

$$$$
>  <molecule>
O=C(O)c1cn(C2CC2)c2cc(N3CCNCC3)c(F)cc2c1=O

>  <Activity>
Active

$$$$
>  <molecule>
CCn1cc(C(=O)O)c(=O)c2cc(F)c(N3CCNCC3)cc21 [NORFLOXACIN]

>  <Activity>
Active

$$$$

====

# Tested on: Escherichia coli
# experiment_description: Bactericidal activity against Escherichia coli DM4100 in the presence of chloramphenicol
# Type: functional, organism-based
Activity calls are given as the source filed them. The rule behind the calls is not given here.
// classify into Yes (active), No (inactive)

Field: example entries. Status: answers known.
>  <mol>
CCN1CCN(c2c(F)cc3c(=O)c(C(=O)O)cn(C4CC4)c3c2OC)CC1

>  <group_label>
Yes

$$$$
>  <mol>
O=C(O)c1cn(C2CC2)c2cc(N3CCNCC3)c(F)cc2c1=O

>  <group_label>
Yes

$$$$
>  <mol>
CCn1cc(C(=O)O)c(=O)c2cc(F)c(N3CCNCC3)cc21

>  <group_label>
No

$$$$

Please turn your attention to the following entry.
Request: Hello, I am checking results. What call was entered for CCn1cc(C(=O)O)c(=O)c2ccc(C)nc21 ?
Response: No
